These data points were gathered from PubChem BioAssay (NCI).

Test system: NCI-H460 lung
Assay: NCI-60 one-dose screen, 48 h (100 = growth as untreated, 0 = no growth, -100 = all killed)
Settings: 10 µM unless noted
This is part of a sample that, as a whole, favours compounds with a hit. Of some 83,000 tested, about 20% had one in any assay.
growth reference
endpoint.name: growth (%)

- compound: "CC(C)(C)OC(=O)/C=C/c1cccc2c1C(=O)NC(C)(c1cc3cc(Cl)ccc3oc1=O)N2 (stereo not drawn)"
  unit.symbol: "%"
  observed: 43.9
- compound: "O=C1NC(=O)/C(=C/c2ccccc2OCc2cc3ccccc3nc2Cl)S1"
  unit.symbol: "%"
  observed: 91.9
- compound: "COc1cc(/C=C2\\C(=N)N=C(SCc3nc4ccccc4[nH]3)NC2=O)ccc1O"
  unit.symbol: "%"
  observed: 102
